Test: in vitro
Conditions: human
Structures can show the parent of a compound that is named as a salt.
attribute_measured: cytotoxicity at 41 h, 10 µM (%)

* CC(=O)O[C@H]1CC[C@@]2(C)[C@@H](CC[C@@H]3[C@@H]2CC(=O)[C@]2(C)[C@@H]4[C@H](C[C@@H]32)O[C@]2(CC[C@@H](C)CO2)[C@H]4C)C1 [HECOGENIN ACETATE] | -3.7
* CC[C@]1(O)C[C@@H]2CN(CCc3c([nH]c4ccccc34)[C@@](C(=O)OC)(c3cc4c(cc3OC)N(C)[C@H]3[C@@](O)(C(=O)OC)[C@H](OC(C)=O)[C@]5(CC)C=CCN6CC[C@]43[C@@H]65)C2)C1 [VINBLASTINE SULFATE] | 43
* NC(Cn1ccc(=O)c(O)c1)C(=O)O (stereo not shown) | -0.4
* COc1c2c(cc3c1OCO3)CC[N+](C)=C2 [COTARNINE CHLORIDE] | -15.2
* CC(=O)N(O)CCCCCNC(=O)CCC(=O)N(O)CCCCCNC(=O)CCC(=O)N(O)CCCCCN [DEFEROXAMINE MESYLATE] | 19.6
* CCCCCCCCCCCCCCCC(=O)NCCO | 3.5
* S=C=NCc1ccccc1 [BENZYL ISOTHIOCYANATE] | 32.8
